target: Renin (Homo sapiens); assay: Antihypertensive activity against human renin
metric: Ki

{"columns": ["substance", "metric", "reading"],
 "data": [
  ["H-EWPRPQIPP-OH", "Ki", "0.8 µM"]
]}

====

pKi: −log10 of the molar value. Starred links: 1 amine or outer side, 2 acyl side, 3 side chain; linkers in the order of their positions; H or OH if unused. Non-standard residues stand in square brackets, D forms with d. Residues, ends and D or L forms follow the SMILES beside them. ξ: configuration not given here. *: point of attachment. Sta(3ξ) = CC(C)C[C@H](N[*:1])C(O)CC(=O)[*:2]; Isovaleryl = CC(C)CC(=O)*
pKi, UniProtKB P00797: measured values
metric: pKi

{"columns": ["compound", "reading"],
 "data": [
  ["C[C@H](CS)C(=O)N1CCC[C@H]1C(=O)O", 8.77],
  ["C[C@H](NP(=O)(O)Oc1ccccc1)C(=O)N1CCC[C@H]1C(=O)O", 9.00],
  ["C[C@@H](NC(=O)[C@H](Cc1ccccc1)NP(=O)(O)Oc1ccccc1)C(=O)O", 5.66],
  ["C[C@H](CC(=O)O)C(=O)N1CCC[C@H]1C(=O)O", 5.60],
  ["COC(=O)[C@H](CCCN=C(N)N)NC(=O)CC(O)[C@H](CC(C)C)NC(=O)[C@H](C)NC(=O)CC(O)[C@H](CC(C)C)NC(=O)[C@@H](NC(=O)[C@@H](NC(=O)CC(C)C)C(C)C)C(C)C (stereo partly specified) (Isovaleryl-VV[Sta(3ξ)]A[Sta(3ξ)]R-OMe)", 6.52],
  ["CC(C)[C@H](NC(=O)[C@H](Cc1ccccc1)NC(=O)[C@H](Cc1ccccc1)NC(=O)[C@H](Cc1c[nH]cn1)NC(=O)[C@H](Cc1ccccc1)NC(=O)[C@H]1CCCN1C(=O)[C@H](Cc1c[nH]cn1)NC(=O)[C@H]1CCCN1)C(=O)N[C@@H](Cc1ccc(O)cc1)C(=O)O", 6.00]
]}

====

Entries with reported Ki on Renin (Homo sapiens, UniProt P00797)
Sequence (P00797 whole entry): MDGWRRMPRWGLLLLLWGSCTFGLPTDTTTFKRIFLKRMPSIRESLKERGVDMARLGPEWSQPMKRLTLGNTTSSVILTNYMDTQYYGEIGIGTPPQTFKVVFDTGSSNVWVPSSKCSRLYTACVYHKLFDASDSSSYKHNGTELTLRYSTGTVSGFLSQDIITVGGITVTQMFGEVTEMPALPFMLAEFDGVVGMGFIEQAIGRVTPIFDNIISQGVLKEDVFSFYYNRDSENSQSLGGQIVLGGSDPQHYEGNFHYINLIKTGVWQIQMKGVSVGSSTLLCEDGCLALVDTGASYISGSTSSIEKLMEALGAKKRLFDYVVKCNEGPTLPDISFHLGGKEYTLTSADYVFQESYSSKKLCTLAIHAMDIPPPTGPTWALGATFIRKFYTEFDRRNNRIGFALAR
Starred links: 1 amine or outer side, 2 acyl side, 3 side chain; linkers in the order of their positions; H or OH if unused. Non-standard residues stand in square brackets, D forms with d. Residues, ends and D or L forms follow the SMILES beside them. ξ: configuration not given here. *: point of attachment. Sta(3ξ) = CC(C)C[C@H](N[*:1])C(O)CC(=O)[*:2]; Isovaleryl = CC(C)CC(=O)*

{"columns": ["molecule", "unitOfMeasurement", "Ki"],
 "data": [
  ["CC(C)C[C@H](NC(=O)[C@H](Cc1cnc[nH]1)NC(=O)[C@H](Cc1ccccc1)NC(=O)[C@H]1CCCN1C(=O)[C@H](Cc1cnc[nH]1)NC(=O)[C@H]1CCCN1)C(=O)N[C@@H](Cc1ccccc1)C(=O)N[C@H](C(=O)N[C@@H](Cc1ccc(O)cc1)C(=O)O)C(C)C", "nM", 4000],
  ["CC(C)CC(=O)N[C@H](C(=O)N[C@H](C(=O)N[C@@H](CC(C)C)C(O)CC(=O)N[C@@H](C)C(=O)N[C@@H](CC(C)C)C(O)CC(=O)N[C@@H](CCCN=C(N)N)C(=O)O)C(C)C)C(C)C (some centres not stated) (Isovaleryl-VV[Sta(3ξ)]A[Sta(3ξ)]R-OH)", "nM", 100]
]}

All figures here come from ChEMBL document CHEMBL1121806.
